From: patent US20180362629A1

Tgt: T1, recombinant canine β NGF (canine, UniProt Q29074 110-229 (pig entry))
T1 construct: also called canine NGF
T1 chain: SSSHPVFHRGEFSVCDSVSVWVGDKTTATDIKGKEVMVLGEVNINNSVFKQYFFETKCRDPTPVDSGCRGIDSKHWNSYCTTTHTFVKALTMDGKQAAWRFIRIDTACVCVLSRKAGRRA
Run description: SPR (Biacore), mAb captured on goat anti-mouse IgG Fc, canine NGF injected; Expt 1
Recorded endpoint: Kd

The cases that follow already have their Kd on record.
PR-1254980 (antibody, mouse IgG1, V domains shown, also called 23F1; ML129-23F1.4G3) VH: EVQLQQSGAELVKPGASVKLSCTASGFNIKDTYIYWVKQRPEQGLEWIGRIDPANGNTIYASKFQGKATITADTSSNTAYMQLSSLTSGDTAVYYCAGYGYYAYWGQGTTLTVSS VL: DVVLTQTPLSLPVNIGDQASISCKSTKSLLNGDGFTYLDWYLQKPGQSPQLLIYLVSNRFSGVPDRFSGSGSGTDFTLKISRVEAEDLGVYYCFESNYLFTFGSGTKLEMKR : < 0.0237 nM
PR-1254973 (antibody, mouse IgG2b, V domains shown, also called 2B12; ML129-2B12.5G9) VH: QVQLQQPGAELVKPGASVKLSCKASGYTFTNYWMHWVKQRPGQGLEWIGRIDPYGGGTKHNEKFKRKATVTADKSSSTAYILLSSLTSEDSAVYYCTRSGYDYYFDVWGTGTTVTVSS VL: DIQMTQSPASLSASVGETVTVTCRASENIYSFLAWHQQKQGKSPQLLVYNANTLAEGVPSRFSGSGSGTQFSLKINSLQPEDFGSYYCQHHFGTPFTFGSGTKLEIKR : < 0.0121 nM

State, in one line, measured Kd of PR-1254972 (antibody, mouse IgG2b, V domains shown, also called 20B10; ML129-20B10.3F4) VH: EVHLVESGGGLVKPGGFLILSCAASGFTFSDYYMFWIRQTPGKRLEWVATISDGGSYTYYTDNVKGRFTISRDNVKNNLYLQMSHLKSADTAMYYCARDWSDSEGFAYWGQGTLVTVSA VL: DVLMTQTPLSLPVSLGDQASISCRSSQSIVQSNGNTYLEWYLQKPGQSPKLLIYKVSNRFSGVPDRFSGSGSGTDFTLKISRVEAEDLGVYYCFQGSHVPFTFGSGTKLEIKR < 0.314 nM
